Please go through the items and note down their GR80 Value AMARE.
# System: Amaranthus retroflexus L. (pigweed, redroot)
# assay explanation: General post-emergent herbicidal activity, foliar application
# Assay type: in vivo
# condition parameters: calculated by probit analysis, dose for 80% visual injury; may be extrapolated
Answers are plain numbers, in g ai/ha.

See these solved cases before continuing.
| molecule | output unit | GR80 Value AMARE |
| --- | --- | --- |
| COC(=O)c1nc(C(F)F)c(Cl)c(N)c1Cl | g ai/ha | 84.2 |
| COC(=O)c1nc(C(C)(C)F)cc(N)c1Cl | g ai/ha | 13.7 |
| Nc1c(F)c(C(F)F)nc(C(=O)O)c1Cl | g ai/ha | 251 |

Please give GR80 Value AMARE, item by item, for the list that follows.
1. COC(=O)c1nc(C(C)F)c(F)c(N)c1Cl (stereo not drawn)
2. CC(F)c1nc(C(=O)O)c(Cl)c(N)c1F (stereo not drawn)
3. COC(=O)c1nc(C(C)(C)F)c(F)c(N)c1Cl

Found:
[22.3, 40.6, 25.1]

Please give GR80 Value AMARE, item by item, for the list that follows.
1. COC(=O)c1nc(CF)cc(N)c1Cl
2. Nc1c(Cl)c(CF)nc(C(=O)O)c1Cl
3. Nc1cc(C(F)F)nc(C(=O)O)c1Cl
4. CC(F)c1cc(N)c(Cl)c(C(=O)O)n1 (stereo not drawn)
5. COC(=O)c1nc(C(C)F)c(Cl)c(N)c1Cl (stereo not drawn)

Found:
104
180
17.5
12.3
18.1

---

Please go through the items and note down their GR80 Value AMARE.
# Test system: Amaranthus retroflexus L. (pigweed, redroot)
# assay explanation: General post-emergent herbicidal activity, foliar application
# Assay type: in vivo
# condition parameters: calculated by probit analysis, dose for 80% visual injury; may be extrapolated
Numbers only, in g ai/ha.

| compound | measured |
| --- | --- |
| COC(=O)c1nc(C(C)F)cc(N)c1Cl (centres unmarked) | 19.1 |

Please give GR80 Value AMARE, item by item, for the list that follows.
1. COC(=O)c1nc(C(F)CF)cc(N)c1Cl (centres unmarked)
2. COC(=O)c1nc(C(F)F)c(F)c(N)c1Cl
3. COC(=O)c1nc(CCF)c(F)c(N)c1Cl
4. COC(=O)c1nc(C(F)F)cc(N)c1Cl
5. COC(=O)c1nc(CF)c(Cl)c(N)c1Cl

Found:
1: 66.4; 2: 112; 3: 55.1; 4: 26.8; 5: 142

Please give GR80 Value AMARE, item by item, for the list that follows.
1. CC(F)c1nc(C(=O)O)c(Cl)c(N)c1Cl (centres unmarked)
2. COC(=O)c1nc(CF)c(F)c(N)c1Cl
3. COC(=O)c1nc(CC(F)F)c(F)c(N)c1Cl
4. Nc1c(Cl)c(C(=O)O)nc(C(F)F)c1Cl

Found:
[51.4, 89.2, 103, 27.6]

---

# System: Euphorbia heterophylla L. (poinsettia, wild)
# assay explanation: General post-emergent herbicidal activity, foliar application
# Format: in vivo
# condition parameters: Euphorbia heterophylla, 336 h, 70 g ai/ha, foliar post-emergent, scored after 14 days; read-out: % Visual Growth Reduction EPHHL
measurement kind: pest or weed control at 70 g/ha (%)
Numbers only, in %.

See these solved cases before continuing.
| molecule | pest or weed control at 70 g/ha, % |
| --- | --- |
| COC(=O)c1nc(C(F)F)c(F)c(N)c1Cl [Compound F3] | 50 |
| Nc1c(Cl)c(C(=O)O)nc(C(F)F)c1Cl [Compound F13] | 100 |
| COC(=O)c1nc(CF)c(F)c(N)c1Cl [Compound F14] | 100 |
| COC(=O)c1nc(CF)c(Cl)c(N)c1Cl [Compound F1] | 100 |
| COC(=O)c1nc(CCF)c(F)c(N)c1Cl [Compound F29] | 100 |
| COC(=O)c1nc(C(F)F)c(Cl)c(N)c1Cl [Compound F7] | 90 |
| COC(=O)c1nc(C(F)F)cc(N)c1Cl [Compound F12] | 100 |
| COC(=O)c1nc(C(F)CF)cc(N)c1Cl (centres unmarked) [Compound F28] | 80 |
| COC(=O)c1nc(C(C)(C)F)cc(N)c1Cl [Compound F9] | 85 |
| Nc1cc(C(F)F)nc(C(=O)O)c1Cl [Compound F27] | 100 |

Now take the following molecule into account.
Lookup: Fill blank: measured pest or weed control at 70 g/ha of the molecule CC(F)c1cc(N)c(Cl)c(C(=O)O)n1 (centres unmarked) [Compound F24] is ____.
Found: 80

---

# System: Zea mays L. (corn)
# assay explanation: General post-emergent herbicidal activity, foliar application
# Format: in vivo
# condition parameters: 336 h, 280 g ai/ha, scored after 14 days, read-out: % Visual Growth Reduction ZEAMX
measurement kind: plant injury at 280 g/ha (%)
Give bare numbers, in %.

| compound | plant injury at 280 g/ha [%] |
| --- | --- |
| CC(F)c1cc(N)c(Cl)c(C(=O)O)n1 (stereo not drawn) [Compound F24] | 10 |

Please give plant injury at 280 g/ha, item by item, for the list that follows.
1. COC(=O)c1nc(CF)c(F)c(N)c1Cl [Compound F14]
2. COC(=O)c1nc(CCl)c(F)c(N)c1Cl [Compound F21]

Found:
[45, 0]

---

# System: Euphorbia heterophylla L. (poinsettia, wild)
# assay explanation: General post-emergent herbicidal activity, foliar application
# Format: in vivo
# condition parameters: Euphorbia heterophylla, 336 h, 140 g ai/ha, foliar post-emergent, scored after 14 days; read-out: % Visual Growth Reduction EPHHL
Please go through the items and note down their pest or weed control at 140 g/ha.
Numbers only, in %.

See these solved cases before continuing.
| compound | output unit | measured |
| --- | --- | --- |
| CC(F)c1nc(C(=O)O)c(Cl)c(N)c1F (stereo not shown) | % | 100 |
| COC(=O)c1nc(C(F)F)c(Cl)c(N)c1Cl | % | 100 |
| COC(=O)c1nc(C(F)F)c(F)c(N)c1Cl | % | 75 |
| COC(=O)c1nc(C(C)F)c(Cl)c(N)c1Cl (stereo not shown) | % | 30 |
| COC(=O)c1nc(C(F)(F)F)cc(N)c1Cl [Prior Art 1, reference compound] | % | 95 |
| COC(=O)c1nc(C(F)=C(F)F)cc(N)c1Cl | % | 0 |
| CC(F)c1nc(C(=O)O)c(Cl)c(N)c1Cl (stereo not shown) | % | 0 |
| Nc1cc(C(F)F)nc(C(=O)O)c1Cl | % | 100 |
| Nc1c(Cl)c(CF)nc(C(=O)O)c1Cl | % | 100 |

Now take the following compound into account.
Lookup: Fill blank: measured pest or weed control at 140 g/ha of the compound COC(=O)c1nc(C(C)F)cc(N)c1Cl (stereo not shown) is ____.
Found: 100

---

# Tested on: Euphorbia heterophylla L. (poinsettia, wild)
# assay explanation: General post-emergent herbicidal activity, foliar application
# Format: in vivo
# condition parameters: Euphorbia heterophylla, 336 h, 70 g ai/ha, foliar post-emergent, scored after 14 days; read-out: % Visual Growth Reduction EPHHL
measurement kind: pest or weed control at 70 g/ha (%)
One number for each entry, in %.

| molecule | measurement kind | measured |
| --- | --- | --- |
| CC(F)c1nc(C(=O)O)c(Cl)c(N)c1Cl (stereo not shown) [Compound F16] | pest or weed control at 70 g/ha | 0 |

Please give pest or weed control at 70 g/ha, item by item, for the list that follows.
1. Nc1c(F)c(CF)nc(C(=O)O)c1Cl [Compound F36]
2. COC(=O)c1nc(C(F)(F)F)cc(N)c1Cl [Prior Art 1, reference compound]
3. COC(=O)c1nc(C(C)F)cc(N)c1Cl (stereo not shown) [Compound F19]
4. CC(F)c1nc(C(=O)O)c(Cl)c(N)c1F (stereo not shown) [Compound F30]

Found:
1: 100; 2: 85; 3: 90; 4: 70

Please give pest or weed control at 70 g/ha, item by item, for the list that follows.
1. COC(=O)c1nc(C(C)F)c(F)c(N)c1Cl (stereo not shown) [Compound F15]
2. COC(=O)c1nc(C(C)F)c(Cl)c(N)c1Cl (stereo not shown) [Compound F10]

Found:
1: 85; 2: 20

---

# System: Zea mays L. (corn)
# assay explanation: General post-emergent herbicidal activity, foliar application
# Format: in vivo
# condition parameters: 336 h, 35 g ai/ha, scored after 14 days, read-out: % Visual Growth Reduction ZEAMX
measurement kind: plant injury at 35 g/ha (%)
Answers are plain numbers, in %.

See these solved cases before continuing.
| compound | measurement target | output unit | plant injury at 35 g/ha |
| --- | --- | --- | --- |
| Nc1c(F)c(CF)nc(C(=O)O)c1Cl [Compound F36] | Zea mays L. (corn) | % | 0 |
| COC(=O)c1nc(CF)c(F)c(N)c1Cl [Compound F14] | Zea mays L. (corn) | % | 0 |

Lookup: Fill blank: measured plant injury at 35 g/ha of the compound COC(=O)c1nc(C(C)F)cc(N)c1Cl (stereo not drawn) [Compound F19] is ____.
Found: 0
